Hey, just so you know, these numbers are from patent US20140329905A1.

- measurement-target: HDAC10 (Homo sapiens, UniProt Q969S8)
- Construct: Reaction Biology Corporation
- Sequence (Q969S8 1-669): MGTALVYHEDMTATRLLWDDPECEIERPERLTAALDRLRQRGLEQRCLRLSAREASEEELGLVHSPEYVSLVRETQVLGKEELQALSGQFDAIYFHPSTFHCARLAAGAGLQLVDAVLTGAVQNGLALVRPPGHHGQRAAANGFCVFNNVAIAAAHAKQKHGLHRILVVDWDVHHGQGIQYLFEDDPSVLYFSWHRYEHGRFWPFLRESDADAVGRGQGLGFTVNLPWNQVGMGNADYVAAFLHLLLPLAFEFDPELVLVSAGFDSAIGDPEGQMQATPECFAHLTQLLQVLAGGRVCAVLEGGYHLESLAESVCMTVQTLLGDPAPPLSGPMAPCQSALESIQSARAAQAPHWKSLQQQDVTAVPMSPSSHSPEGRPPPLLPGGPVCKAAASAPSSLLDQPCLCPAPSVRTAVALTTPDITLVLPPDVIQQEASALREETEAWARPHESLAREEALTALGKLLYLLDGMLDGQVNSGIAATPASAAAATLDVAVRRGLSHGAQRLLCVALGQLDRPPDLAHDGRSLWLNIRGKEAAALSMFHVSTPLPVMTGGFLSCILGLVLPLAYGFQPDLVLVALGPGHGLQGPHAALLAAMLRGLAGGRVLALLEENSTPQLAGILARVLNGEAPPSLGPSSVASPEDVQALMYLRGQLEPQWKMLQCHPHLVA
- method-notes: In vitro HDAC10 activity assay by Reaction Biology Corporation
- Assay type: biochemical
- assay-setup: read-out: IC50 HDAC10 from RBC
- Source text: The inhibitory activity of compounds toward HDAC10 was investigated by Reaction Biology Corporation (Malvern, Pa., USA).
measured-attribute: IC50

// query HDAC10 (Homo sapiens, UniProt Q969S8) / IC50 / `CCCC(CCC)C(=O)O` : value?
// result > 10 mM
